experiment: in vivo pharmacokinetic profile after oral administration to dogs; set-up: species or system male beagle dogs; details: male, beagle, dog, plasma; fasted dogs, single PO dose 100 mg capsule (Table 4) or 400 mg (4×100 mg capsule)
Value Kind: Tmax

Recorded Tmax (compound O=C1N(Cc2ccc(C(F)(F)F)o2)c2ccccc2[C@]12COc1cc3c(cc12)OCO3 [COMPOUND B] ): 1 to 3 h

====

system: sodium channel; assay: guanidine influx assay (WO 06/110917, BIOLOGICAL EXAMPLE 1); format: cell-based; conditions: inhibition of ion flux through a sodium channel
Value Kind: IC50

// IC50 value for O=C1N(Cc2ccc(C(F)(F)F)o2)c2ccccc2C12COc1cc3c(cc12)OCO3 (racemic) : < 1 µM
